Each entry below carries its reported Dmax.
Test system: androgen receptor (AR) (Homo sapiens, UniProt P10275, T878A)
Construct: host or cells: LNCaP human prostate cancer cells
Sequence (P10275 whole entry T878A): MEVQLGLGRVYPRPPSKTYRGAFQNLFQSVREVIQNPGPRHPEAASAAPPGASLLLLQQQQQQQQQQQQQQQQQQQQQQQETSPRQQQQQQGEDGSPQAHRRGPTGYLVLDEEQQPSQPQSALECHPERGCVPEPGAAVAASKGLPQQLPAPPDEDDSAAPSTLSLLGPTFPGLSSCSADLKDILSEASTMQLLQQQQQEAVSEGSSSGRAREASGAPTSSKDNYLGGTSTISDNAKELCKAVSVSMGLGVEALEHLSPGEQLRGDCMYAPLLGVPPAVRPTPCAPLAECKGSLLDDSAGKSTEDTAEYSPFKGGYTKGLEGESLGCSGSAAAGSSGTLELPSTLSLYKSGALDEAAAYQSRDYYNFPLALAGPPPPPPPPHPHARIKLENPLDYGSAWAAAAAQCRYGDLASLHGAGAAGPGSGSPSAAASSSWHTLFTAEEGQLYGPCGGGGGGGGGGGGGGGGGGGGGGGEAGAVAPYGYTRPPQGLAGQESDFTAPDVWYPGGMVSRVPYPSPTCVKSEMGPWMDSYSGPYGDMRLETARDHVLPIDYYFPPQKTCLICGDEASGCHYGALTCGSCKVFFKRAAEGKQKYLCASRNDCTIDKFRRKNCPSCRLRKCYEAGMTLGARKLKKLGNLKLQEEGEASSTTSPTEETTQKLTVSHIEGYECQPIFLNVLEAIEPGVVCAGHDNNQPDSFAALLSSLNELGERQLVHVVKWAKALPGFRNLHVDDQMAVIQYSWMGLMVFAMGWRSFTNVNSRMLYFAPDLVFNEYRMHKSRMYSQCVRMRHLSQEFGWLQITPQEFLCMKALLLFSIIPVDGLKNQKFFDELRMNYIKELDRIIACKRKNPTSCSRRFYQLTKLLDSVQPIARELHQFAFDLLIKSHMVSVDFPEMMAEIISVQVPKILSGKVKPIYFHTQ
Assay protocol: Degradation activity on androgen receptor in LNCaP cells (AR ELISA)
Assay type: cell-based
Experimental conditions: 0.1 nM R1881, 24 hours, read-out: Max (maximum AR degradation rate)
Only the number, expressed in %, is required.

Example compounds with recorded Dmax:
Task: Give its Dmax value. Item: C[C@H]1CC2(CCN(c3ccc(C(=O)N4CCC5(CC4)CC(N4CCN(c6ccc(C7CCC(=O)NC7=O)cc6)CC4)C5)cc3)CC2)CN1c1ccc(C#N)c(Cl)c1 (stereo partly drawn) [Example 34]
Result: 96

Task: Give its Dmax value. Item: C[C@H]1CC2(CCN(c3ccc(C(=O)N4CCC(CN5CCC(c6ccc(NC7CCC(=O)NC7=O)cc6F)CC5)CC4)cc3)CC2)CN1c1ccc(C#N)c(Cl)c1 (stereo partly drawn) [Example 27]
Result: 96

Task: Give its Dmax value. Item: C[C@H]1CC2(CCN(c3ccc(C(=O)N4CCC(CN5CCN(c6cc(NC7CCC(=O)NC7=O)ccn6)CC5)CC4)cc3)CC2)CN1c1ccc(C#N)c(Cl)c1 (stereo partly drawn) [Example 24]
Result: 94

Task: Give its Dmax value. Item: C[C@H]1CC2(CCN(c3ccc(C(=O)N4CCC5(CC4)CC(N4CCN(c6cccc(NC7CCC(=O)NC7=O)c6)CC4)C5)cc3F)CC2)CN1c1ccc(C#N)c(Cl)c1 (stereo partly drawn) [Example 36]
Result: 97

Task: Give its Dmax value. Item: C[C@H]1CC2(CCN(c3ccc(C(=O)N4CCC(CN5CCN(c6cccc(NC7CCC(=O)NC7=O)c6)CC5)CC4)c(F)c3)CC2)CN1c1ccc(C#N)c(Cl)c1 (stereo partly drawn) [Example 16]
Result: 97

***
Task: Give its Dmax value. Item: C[C@H]1CC2(CCN(c3cnc(C(=O)N4CCC(CN5CCN(c6cccc(NC7CCC(=O)NC7=O)c6)CC5)CC4)cn3)CC2)CN1c1ccc(C#N)c(Cl)c1 (stereo partly drawn) [Example 17]
Result: 97

Task: Give its Dmax value. Item: C[C@H]1CC2(CCN(c3ccc(C(=O)N4CCC(CN5CCN(c6cccc(NC7CCC(=O)NC7=O)c6)CC5)CC4)cn3)CC2)CN1c1ccc(C#N)c(Cl)c1 (stereo partly drawn) [Example 18]
Result: 96

Task: Give its Dmax value. Item: C[C@H]1CC2(CCN(c3ccc(C(=O)N4CCC(CN5CCC(c6cccc(NC7CCC(=O)NC7=O)c6)CC5)CC4)cc3)CC2)CN1c1ccc(C#N)c(Cl)c1 (stereo partly drawn) [Example 19]
Result: 96

Task: Give its Dmax value. Item: C[C@H]1CC2(CCN(c3ccc(C(=O)N4CCC(CN5CCN(c6cc(NC7CCC(=O)NC7=O)ccc6F)CC5)CC4)cc3)CC2)CN1c1ccc(C#N)c(Cl)c1 (stereo partly drawn) [Example 23]
Result: 96
